System: C. dubliniensis T-99
Experiment: MIC80 broth double-dilution assay
Type: cell-based
Conditions: YPAD medium, 30° C., 24 h
Recorded endpoint: MIC80 against C. dubliniensis T-99 (µg/mL)
A number alone suffices; assume µg/mL.

Worked cases, MIC80 against C. dubliniensis T-99 given:
| Cpd smiles | Unit label | MIC80 against C. dubliniensis T-99 |
| --- | --- | --- |
| C[C@@H](C(=O)NC[C@@](O)(Cn1cncn1)c1ccc(F)cc1F)c1ccc(-c2ccccc2)c(F)c1 | µg/mL | 0.5 |
| C[C@@H](C(=O)NC[C@](O)(Cn1cncn1)c1ccc(F)cc1F)c1ccc(-c2ccccc2)c(F)c1 | µg/mL | 2 |
| C[C@H](C(=O)NC[C@](O)(Cn1cncn1)c1ccc(F)cc1F)c1cccc(C(=O)c2ccccc2)c1 | µg/mL | 64 |

Now consider the entry below.
// query // lookup MIC80 against C. dubliniensis T-99 for `COc1ccc2cc([C@H](C)C(=O)NC[C@](O)(Cn3cncn3)c3ccc(F)cc3F)ccc2c1`
// result 4

Every entry's value here was drawn from patent US20250018048A1.
